Target: full-length ATR (Homo sapiens (Human), UniProt Q13535)
Sequence (Q13535 whole entry): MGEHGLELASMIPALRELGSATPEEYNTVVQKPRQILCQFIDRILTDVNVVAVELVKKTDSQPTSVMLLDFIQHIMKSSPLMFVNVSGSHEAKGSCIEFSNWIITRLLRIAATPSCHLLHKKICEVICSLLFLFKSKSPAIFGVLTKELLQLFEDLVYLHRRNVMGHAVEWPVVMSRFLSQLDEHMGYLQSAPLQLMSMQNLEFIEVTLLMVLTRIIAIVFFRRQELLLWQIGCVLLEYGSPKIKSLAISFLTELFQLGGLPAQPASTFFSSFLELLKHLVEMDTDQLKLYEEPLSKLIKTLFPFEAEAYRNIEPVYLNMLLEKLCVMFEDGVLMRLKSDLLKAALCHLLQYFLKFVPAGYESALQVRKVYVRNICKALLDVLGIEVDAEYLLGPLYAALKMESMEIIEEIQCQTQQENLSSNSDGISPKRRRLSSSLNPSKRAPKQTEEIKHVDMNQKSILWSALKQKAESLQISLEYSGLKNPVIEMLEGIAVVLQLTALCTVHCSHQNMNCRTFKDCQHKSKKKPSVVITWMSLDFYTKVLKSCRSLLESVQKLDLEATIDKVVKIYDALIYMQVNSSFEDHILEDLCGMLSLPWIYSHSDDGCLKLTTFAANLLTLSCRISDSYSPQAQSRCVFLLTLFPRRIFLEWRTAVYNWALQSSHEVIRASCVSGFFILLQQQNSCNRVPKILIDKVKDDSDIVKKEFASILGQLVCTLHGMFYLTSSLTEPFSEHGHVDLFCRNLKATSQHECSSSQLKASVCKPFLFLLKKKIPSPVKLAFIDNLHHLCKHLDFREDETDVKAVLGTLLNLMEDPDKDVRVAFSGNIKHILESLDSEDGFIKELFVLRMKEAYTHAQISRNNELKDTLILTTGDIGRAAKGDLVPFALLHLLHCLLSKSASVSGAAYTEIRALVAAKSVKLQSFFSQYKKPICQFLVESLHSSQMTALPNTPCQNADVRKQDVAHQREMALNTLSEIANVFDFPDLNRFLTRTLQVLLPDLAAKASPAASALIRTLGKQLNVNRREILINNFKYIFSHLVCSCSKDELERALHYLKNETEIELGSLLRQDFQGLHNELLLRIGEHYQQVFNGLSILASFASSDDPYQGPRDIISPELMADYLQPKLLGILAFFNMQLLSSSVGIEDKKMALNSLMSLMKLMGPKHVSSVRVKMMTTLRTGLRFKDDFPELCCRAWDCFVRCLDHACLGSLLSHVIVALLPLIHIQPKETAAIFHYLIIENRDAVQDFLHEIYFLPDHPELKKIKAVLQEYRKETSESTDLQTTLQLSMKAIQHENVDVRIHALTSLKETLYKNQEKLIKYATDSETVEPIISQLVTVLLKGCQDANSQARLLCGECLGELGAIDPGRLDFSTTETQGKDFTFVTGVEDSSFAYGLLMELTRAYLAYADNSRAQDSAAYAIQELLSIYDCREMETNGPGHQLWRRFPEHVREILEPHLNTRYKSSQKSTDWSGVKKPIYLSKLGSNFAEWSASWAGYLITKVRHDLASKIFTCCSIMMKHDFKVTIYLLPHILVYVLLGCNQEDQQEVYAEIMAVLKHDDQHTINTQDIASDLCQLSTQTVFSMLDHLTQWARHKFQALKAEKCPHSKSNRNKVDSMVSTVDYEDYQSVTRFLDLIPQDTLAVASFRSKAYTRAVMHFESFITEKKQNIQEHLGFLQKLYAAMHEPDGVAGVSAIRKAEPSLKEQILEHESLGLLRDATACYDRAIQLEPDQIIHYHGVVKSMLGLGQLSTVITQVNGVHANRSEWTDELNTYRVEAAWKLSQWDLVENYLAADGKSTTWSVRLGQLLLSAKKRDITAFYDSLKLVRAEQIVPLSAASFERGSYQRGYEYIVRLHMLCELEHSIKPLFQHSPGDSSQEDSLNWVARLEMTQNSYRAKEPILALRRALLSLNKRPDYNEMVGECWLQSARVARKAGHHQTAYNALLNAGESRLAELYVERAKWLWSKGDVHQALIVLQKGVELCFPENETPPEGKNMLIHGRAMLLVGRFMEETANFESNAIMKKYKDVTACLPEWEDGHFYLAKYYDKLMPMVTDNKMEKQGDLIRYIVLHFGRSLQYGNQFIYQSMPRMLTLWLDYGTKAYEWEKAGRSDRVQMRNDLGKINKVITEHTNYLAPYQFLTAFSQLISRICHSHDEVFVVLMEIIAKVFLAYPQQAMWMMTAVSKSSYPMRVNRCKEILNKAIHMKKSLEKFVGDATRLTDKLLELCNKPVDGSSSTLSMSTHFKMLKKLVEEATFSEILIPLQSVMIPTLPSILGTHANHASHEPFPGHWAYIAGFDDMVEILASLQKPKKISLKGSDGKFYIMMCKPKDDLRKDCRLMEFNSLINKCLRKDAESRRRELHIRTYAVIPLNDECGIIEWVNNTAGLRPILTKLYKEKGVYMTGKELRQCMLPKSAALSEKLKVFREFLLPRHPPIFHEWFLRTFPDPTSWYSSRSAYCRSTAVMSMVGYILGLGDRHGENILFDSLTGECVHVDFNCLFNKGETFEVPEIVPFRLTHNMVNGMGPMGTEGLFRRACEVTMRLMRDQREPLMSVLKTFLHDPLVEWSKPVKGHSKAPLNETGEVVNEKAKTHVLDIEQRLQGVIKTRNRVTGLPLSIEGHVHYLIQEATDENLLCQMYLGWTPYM
Assay: ATR Inhibition Assay (radioactive-phosphate incorporation)
Assay type: biochemical
Settings: read-out: ATR Ki
Observation Type: Ki

query: Would you kindly share the measured Ki for CC(C)S(=O)(=O)c1ccc(-c2cnc(N)c(-c3nnc(-c4ccc(O)cc4)o3)n2)cc1 [IA-193] ?
result: ≤ 10 nM

query: Could you share which Ki value was measured for Nc1ncc(-c2ccc(C(=O)N3CCOCC3)cc2)nc1-c1nnc(-c2ccccc2)o1 [IA-13] ?
result: 10 to 100 nM

query: Please report the recorded Ki for CN(C)C(=O)c1ccc(-c2cnc(N)c(-c3nnc(-c4ccsc4)o3)n2)cc1 [IA-262] .
result: ≤ 10 nM

query: Fill in the blank: the reported Ki of CN(C)C(=O)c1ccc(-c2cnc(N)c(-c3nnc(-c4ccc(F)cc4)o3)n2)cc1 [IA-36] is ____.
result: 10 to 100 nM

query: Could you tell me which Ki is on file for CN(C)C(=O)c1ccc(-c2cnc(N)c(-c3nnc(-c4ccco4)o3)n2)cc1 [IA-115] ?
result: 10 to 100 nM

query: Look up Ki: CS(=O)(=O)c1ccc(-c2cnc(N)c(-c3nc4ccncc4[nH]3)n2)cc1 [Compound I-120]
result: 10 to 100 nM

query: Requested field: Ki. Item: COc1ccncc1NC(=O)c1nc(-c2ccc(S(C)(=O)=O)cc2)cnc1N [VII-9]
result: ≤ 10 nM

query: Looking for the measured Ki of CC(C)S(=O)(=O)c1ccc(-c2cnc(N)c(-c3nnc(CCNC(=O)OC(C)(C)C)o3)n2)cc1 [IA-251] , can you help?
result: 100 to 5000 nM

query: Entry Nc1ncc(-c2cccnc2)nc1C(=O)Nc1ccccc1F [Compound I-96] has what Ki?
result: 100 to 5000 nM

query: Recorded Ki of CN(C)C(=O)c1ccc(-c2cnc(N)c(C(=O)Nc3ccccc3)n2)cc1 [Compound I-24] , please.
result: 10 to 100 nM

query: I'd like to know its Ki. The molecule in question is CN(C)C(=O)c1ccc(-c2cnc(N)c(-c3nnc(-c4ccc(O)cc4)o3)n2)cc1 [IA-87]
result: ≤ 10 nM

query: If you can, please state the reported Ki value of CC(C)S(=O)(=O)c1ccc(-c2cnc(N)c(-c3nnc(C(=O)O)o3)n2)cc1 [IA-128] .
result: ≤ 10 nM

query: # lookup: Ki of Nc1ncc(-c2cnc(C(=O)N3CCCNCC3)nc2)nc1-c1nnc(-c2ccccc2)o1 [IA-37]
result: 10 to 100 nM

query: Requested field: Ki. Item: CNCc1ccc(-c2nnc(-c3nc(-c4ccc(S(=O)(=O)C(C)C)cc4)cnc3N)o2)cc1 [IA-159]
result: ≤ 10 nM

query: I would be grateful if you could share the reported Ki for CC(N)C(=O)Nc1nnc(-c2nc(-c3ccc(S(=O)(=O)C(C)C)cc3)cnc2N)o1 (stereo not drawn) [IA-272] .
result: 100 to 5000 nM

query: What value of measured Ki is listed for Nc1ncc(-c2cccnc2)nc1C(=O)Nc1ccccn1 [Compound I-97] ?
result: 100 to 5000 nM

query: Quick one: Ki of CN(C)C(=O)c1ccc(-c2cnc(N)c(-c3nnc(-c4ccncc4)o3)n2)cc1 [IA-67] ?
result: 10 to 100 nM

query: Query (molecule): CC(C)S(=O)(=O)c1ccc(-c2cnc(N)c(-c3nnc(CCN)o3)n2)cc1 [IA-214] ; field requested: Ki
result: 10 to 100 nM
